- Test system: WPMY1-CANX-COX4
- experiment-notes: lowest phenotypically active concentration; higher = less potent
- condition-label: treatment time: 24 h
measurement-kind: lowest phenotypically active concentration

compound	result
C[C@H]1CCCC=C[C@@H]2C[C@H](O)C[C@H]2[C@H](O)C=CC(=O)O1	≤ 0.3 µM
CCCCCC[C@H]1C(=O)O[C@H](C)[C@H](NC(=O)c2cccc(NC=O)c2O)C(=O)O[C@@H](C)[C@@H]1OC(=O)CC(C)C [antimycin a]	≤ 0.3 µM

Asked: Using the record for C[C@H](CCC(=O)O)C[C@H](C)C[C@H](C)C(=O)/C=C(\O)[C@H](C)C[C@H](C)C/C=C/[C@@H](C)[C@@H](O)[C@@H](C)[C@@H](O)C[C@@H]1CC[C@@](C)([C@H]2CC[C@@](C)([C@@H](C)O)O2)O1 [Ionomycin free acid] , report its lowest phenotypically active concentration.
Given back: 9 µM

Asked: lowest phenotypically active concentration lookup needed for `COc1cc([C@@H]2c3cc4c(cc3[C@H](O)[C@H]3COC(=O)[C@H]23)OCO4)cc(OC)c1OC` , thanks.
Given back: ≤ 0.3 µM

Asked: Any idea what lowest phenotypically active concentration was measured for `CCn1cnc2c(Nc3cccc(Cl)c3)nc(N[C@H]3CCCC[C@H]3N)nc21` ?
Given back: 1 µM

Asked: Record request: lowest phenotypically active concentration value, item `COc1cc2c(c(OC)c1OC)-c1ccc(OC)c(=O)cc1[C@@H](NC(C)=O)CC2`
Given back: ≤ 0.3 µM

---

- Tested on: HepG2-GM130-SQSTM1
- experiment-notes: lowest phenotypically active concentration; higher = less potent
- condition-label: treatment time: 24 h
measurement-kind: lowest phenotypically active concentration (µM)
Lab book: enter the figure in µM, no units written.

Examples from the recorded data:
compound	value-units	recorded-number
CC[C@@H](C(=O)[C@@H](C)[C@@H](O)[C@H](C)[C@@H]1O[C@@H]([C@@H](CC)C(=O)O)CC[C@@H]1C)[C@H]1O[C@]2(C=C[C@@H](O)[C@]3(CC[C@@](C)([C@H]4CC[C@](O)(CC)[C@H](C)O4)O3)O2)[C@H](C)C[C@@H]1C [Salinomycin Sodium]	µM	1
COc1ccc(CCN2CCC(Nc3nc4ccccc4n3Cc3ccc(F)cc3)CC2)cc1	µM	3
N#CC(C#N)=NNc1cccc(Cl)c1	µM	9
CC(C)C[C@H]1C(=O)N2CCC[C@H]2[C@]2(O)O[C@](NC(=O)[C@@H]3C=C4c5cccc6[nH]c(Br)c(c56)C[C@H]4N(C)C3)(C(C)C)C(=O)N12	µM	9
C[C@@]12C(=O)OC(=O)[C@]1(C)[C@H]1CC[C@@H]2O1	µM	9

# next compound below
Asked: Field request: lowest phenotypically active concentration | item: `CCn1cnc2c(Nc3cccc(Cl)c3)nc(N[C@H]3CCCC[C@H]3N)nc21`
Given back: 1

---

- Test system: A549-GM130-SQSTM1
- experiment-notes: phenotypically active (imaging signature differs from DMSO and reproducible) at any of 0.3-9 uM (binary (1 = active, 0 = inactive)); higher = active
- condition-label: treatment time: 24 h
Counter-ions that a name gives are not always drawn.
API: response.call in yes (active), no (inactive)

compound	group-label
Cc1ccc(-c2nc3ccc(C)cn3c2CC(=O)N(C)C)cc1	no
Cc1sc2c(c1C)C(c1ccc(Cl)cc1)=N[C@H](CC(=O)OC(C)(C)C)c1nnc(C)n1-2	no
O=C1NC(=S)N(c2cccc(Br)c2)C(=O)/C1=C/c1ccco1	no
C[C@@H]1O[C@@H](O[C@H]2C[C@@H](O)[C@]3(CO)[C@H]4[C@H](O)C[C@]5(C)[C@@H](C6=CC(=O)OC6)CC[C@]5(O)[C@@H]4CC[C@]3(O)C2)[C@H](O)[C@H](O)[C@H]1O [Strophantine octahydrate]	yes
N#CC(C#N)=NNc1ccc(OC(F)(F)F)cc1	yes

Asked: Please let me know the test result on file for c1ccc([C@@H]2C[C@H]2NC2CCNCC2)cc1 [GSK LSD 1 dihydrochloride] .
Given back: no

Asked: Field: outcome | Entry: `COc1ccc(CCN2CCC(Nc3nc4ccccc4n3Cc3ccc(F)cc3)CC2)cc1`
Given back: yes

Asked: In this assay, the call recorded for CC(C)[C@@]1(NC(=O)[C@@H]2C[C@@H]3c4cccc5[nH]cc(c45)C[C@H]3N(C)C2)O[C@@]2(O)[C@@H]3CCCN3C(=O)[C@H](Cc3ccccc3)N2C1=O [Dihydroergocristine mesylate] was what?
Given back: yes

Asked: What was the test verdict on `CC(C)(N)Cc1ccccc1` ?
Given back: no

Asked: Would you mind telling me which call this test gave `Cc1sc2c(c1C)C(c1ccc(Cl)cc1)=N[C@@H](CC(=O)OC(C)(C)C)c1nnc(C)n1-2` ?
Given back: yes

---

Each entry below lists one item and its recorded phenotypically active value.
- Test system: HepG2-TUBA1B-RELA
- experiment-notes: phenotypically active (imaging signature differs from DMSO and reproducible) at any of 0.3-9 uM (binary (1 = active, 0 = inactive)); higher = active
- condition-label: treatment time: 24 h
Counter-ions that a name gives are not always drawn.
I only need the number, thanks.

Solved entries:
compound	recorded-number
COC1=CC(C)=C[C@@H](C)[C@@H](O)[C@@H](C)CC(C)=CC=C[C@H](OC)[C@@H]([C@@H](C)[C@@H](O)[C@H](C)[C@@]2(O)C[C@@H](O)[C@H](C)[C@@H](C(C)C)O2)OC1=O	1
CNC(C)(C)Cc1ccccc1	0
O=C(Nc1ccncc1)C(=O)c1cn(Cc2ccc(Cl)cc2)c2ccccc12	1
CC[N+](CC)(CCCNC1=CC(=O)C(NCCC[N+](CC)(CC)Cc2ccccc2)=CC1=O)Cc1ccccc1 [Benzoquinonium dibromide]	0
COc1ccc2c(c1OC)C(=O)O[C@@H]2[C@H]1c2cc3c(cc2CCN1C)OCO3 [Hydrastine]	0
C=CCC1(C(C)C#CCC)C(=O)NC(=O)N(C)C1=O (configuration not stated)	0

Asked: I am curious: what phenotypically active value has been reported for CC(C)[C@@]1(NC(=O)[C@@H]2C[C@@H]3c4cccc5[nH]cc(c45)C[C@H]3N(C)C2)O[C@@]2(O)[C@@H]3CCCN3C(=O)[C@H](Cc3ccccc3)N2C1=O [Dihydroergocristine mesylate] ?
Given back: 1

---

The following compounds are listed with their measured lowest phenotypically active concentration values.
- System: A549-TP53BP1-CLTA
- experiment-notes: lowest phenotypically active concentration; higher = less potent
- condition-label: treatment time: 24 h
Please respond with the number in µM and leave the unit unwritten.

Reference set (5 entries):
compound	value-units	recorded-number
COc1ccc(CCN2CCC(Nc3nc4ccccc4n3Cc3ccc(F)cc3)CC2)cc1	µM	3
C[C@@H](CO)NC(=O)[C@@H]1C=C2c3cccc4[nH]cc(c34)C[C@H]2N(C)C1	µM	9
O=C(Nc1ccncc1)C(=O)c1cn(Cc2ccc(Cl)cc2)c2ccccc12	µM	3
Cc1cc2c(C(C)C)c(O)c(O)c(C=O)c2c(O)c1-c1c(C)cc2c(C(C)C)c(O)c(O)c(C=O)c2c1O	µM	9
CN1C[C@H](C(=O)N[C@]2(C)O[C@@]3(O)[C@@H]4CCCN4C(=O)[C@H](Cc4ccccc4)N3C2=O)C[C@@H]2c3cccc4[nH]cc(c34)C[C@H]21.CN1C[C@H](C(=O)N[C@]2(C)O[C@@]3(O)[C@@H]4CCCN4C(=O)[C@H](Cc4ccccc4)N3C2=O)C[C@@H]2c3cccc4[nH]cc(c34)C[C@H]21 [dihydroergotamine]	µM	9

// next item, lowest phenotypically active concentration requested
Asked: Sample `CC(C)C[C@H]1C(=O)N2CCC[C@H]2[C@]2(O)O[C@](NC(=O)[C@@H]3C=C4c5cccc6[nH]c(Br)c(c56)C[C@H]4N(C)C3)(C(C)C)C(=O)N12` — what was its lowest phenotypically active concentration?
Given back: 9

---

Each record here notes measured phenotypically active.
- Test system: HepG2-TUBA1B-RELA
- experiment-notes: phenotypically active (imaging signature differs from DMSO and reproducible) at any of 0.3-9 uM (binary (1 = active, 0 = inactive)); higher = active
- condition-label: treatment time: 24 h
Structures can show the parent of a compound that is named as a salt.
Answer as a number with no unit attached.

Solved cases below.
>>> print(df.to_string())
                                   compound  recorded_number
0  COc1ccc(C(=O)OC2C[C@H]3CC[C@H](C2)N3C)cc1OC (some centres undefined) [Convolamine hydrochloride]                0
1  CN1CCc2cc3c(cc2[C@H]1[C@@H]1OC(=O)c2c1ccc1c2OCO1)OCO3 [bicuculine]                0
2  C[C@]12COC(=O)C[C@@H]1CC[C@@H]1[C@@H]2CC[C@@]2(C)[C@H]1CC[C@]2(C)O [oxandrolone]                0

We next turn to a different compound, shown below.
Asked: # value lookup — system HepG2-TUBA1B-RELA, readout phenotypically active, item CC(C)(C)c1cc(C=C(C#N)C#N)cc(C(C)(C)C)c1O [Malonoben]
Given back: 1
